ASSAYED TARGET: second (BD2: amino acids E352-E168) bromodomain of BRD4 (Homo sapiens)
Construct: protocol
PROTOCOL TEXT: TR-FRET bromodomain binding assay, BRD4 BD2
CONDITION INFO: TR-FRET assay protocol (A-G, compound concentration range); Ki calculated from IC50, probe Kd and probe concentration; read-out: TR-FRET Binding Ki: BRD4 (BDII_E352-M457)
Hi there, I'd appreciate the recorded pKi for every entry that follows.
The quantity pKi is defined as the negative base-10 logarithm of the molar concentration.

Req: Form field - read-out: pKi; system: second (BD2: amino acids E352-E168) bromodomain of BRD4 (Homo sapiens); submitted item: COc1ccc(F)c(-c2cc(=O)n(C)nc2-c2ccccc2Oc2ccccc2)c1 [Example 210]
Resp: 4.82

Req: Can you check Cn1nc(-c2ccccc2Oc2ccccn2)ccc1=O [Example 6] next?
Resp: 5.50

Req: Can you check C/C=C/c1cc(=O)n(C)cc1-c1cc(NS(=O)(=O)CC)ccc1Oc1ccc(F)cc1F [Example 329] next?
Resp: 8.77

Req: Can you check CC(C)Oc1ccc(-c2cc(=O)n(C)nc2-c2ccccc2Oc2ccccc2)cn1 [Example 123] next?
Resp: 5.93

Req: Can you check COc1cc(=O)n(C)nc1-c1cc(NS(C)(=O)=O)ccc1Oc1ccccc1 [Example 22] next?
Resp: 7.28

Req: Can you check CN1CCN(Cc2ccc(-c3cc(=O)n(C)nc3-c3ccccc3Oc3ccccc3)cc2)CC1 [Example 61] next?
Resp: 7.31

Req: Can you check Cc1cc(-c2cc(=O)n(C)nc2-c2ccccc2Oc2ccccc2)cnc1N1CCOCC1 [Example 166] next?
Resp: 6.00

Req: Can you check CCOc1cc(=O)n(C)cc1-c1cc(NC(=O)c2ccc(COc3ccccc3)cc2)ccc1Oc1ccc(F)cc1F [Example 297] next?
Resp: 6.59
